Assignment: determine reported CC50 at 5 days for the given compounds.
# assay.summary: Cytotoxicity assay in MT-4 cells
# Format: cell-based
# stated.conditions: human, uninfected MT-4 cells, Cell Titer Glo
# Method: Compounds were tested in a high-throughput 384-well assay format for their ability to inhibit the replication of HIV-1 (IIIB) in MT-4 cells. […] After 5 days incubation in a humidified and temperature controlled incubator (37° C.), Cell Titer Glo (Promega) was added to the assay plates and chemiluminescence read using an Envision plate-reader. […]
Give bare numbers, in µM.

Parameter requested: CC50 at 5 days. Apply to each item below.
1. C[C@H]1C=C[C@@H](Cl)[C@H]2CN1C(=O)c1c(O)c(=O)c(C(=O)NCc3ccc(F)cc3F)cn12
2. [2H]C([2H])([2H])[C@]1(O)C=C[C@H](C)N2C[C@H]1n1cc(C(=O)NCc3c(F)cc(F)cc3F)c(=O)c(O)c1C2=O
3. CO[C@@H]1C[C@H](F)[C@H](C)N2C[C@H]1n1cc(C(=O)NCc3c(F)cc(F)cc3F)c(=O)c(O)c1C2=O
4. C[C@H]1CC[C@](C)(O)[C@H]2CN1C(=O)c1c(O)c(=O)c(C(=O)NCc3ccc(F)cc3F)cn12 (single isomer, unassigned)
5. CO[C@@]1(C)C=C[C@H](C)N2C[C@H]1n1cc(C(=O)NCc3c(F)cc(F)cc3F)c(=O)c(O)c1C2=O (single isomer, unassigned)

Return:
[15.6, 13, 14.8, 41.3, 11.1]
